Property: Enrichment (average of 3 replicates); scope: individual compounds
ASSAY_SUMMARY: LPME of seven basic drugs from water with different acidic acceptor phases, CE analysis
Format: physicochemical
CONDITION_NOTES: acceptor phase 100 mM phosphate, measured pH 3.0; water sample, 100 ng/mL
Give the figure by itself; no unit, no explanation.

| COMPOUND | Enrichment (average of 3 replicates) |
| --- | --- |
| CN[C@@H](C)Cc1ccccc1 [methamphetamine] | 133 |
| CC(N)Cc1ccccc1 (stereo not shown) [amphetamine] | 128 |
| CN1CCN(C(c2ccccc2)c2ccc(Cl)cc2)CC1 (stereo not shown) [chlorcyclizine] | 93 |

Note: attention shifts to another entry.
Query: Sample CCC(=O)C(CC(C)N(C)C)(c1ccccc1)c1ccccc1 (stereo not shown) [methadone] — what was its Enrichment (average of 3 replicates)?
Reply: 117

====

ASSAY_SUMMARY: LPME of seven basic drugs with different hollow fibres (polypropylene, polysulfone)
Assay type: physicochemical
CONDITION_NOTES: hollow fibre Polypropylene, 600 μm ID; hexyl ether; 0.01 M hydrochloric acid acceptor
TEST_READOUT: Enrichment (average of 3 replicates)

Examples with answers:
| MOLECULE | MEASUREMENT |
| --- | --- |
| CN1CCN(C(c2ccccc2)c2ccc(Cl)cc2)CC1 (stereo not shown) [chlorcyclizine] | 126 |
| CCC(=O)C(CC(C)N(C)C)(c1ccccc1)c1ccccc1 (stereo not shown) [methadone] | 138 |
| CN[C@@H](C)Cc1ccccc1 [methamphetamine] | 122 |

Query: Sample CC(N)Cc1ccccc1 (stereo not shown) [amphetamine] — what was its Enrichment (average of 3 replicates)?
Reply: 82

====

ASSAY_SUMMARY: LPME of seven basic drugs from water with different acidic acceptor phases, CE analysis
Format: physicochemical
CONDITION_NOTES: acceptor phase 100 mM CH3COOH, measured pH 2.7; water sample, 100 ng/mL
Property: Enrichment (average of 3 replicates); scope: individual molecules
Give the figure by itself; no unit, no explanation.

Examples with answers:
| MOLECULE | Enrichment (average of 3 replicates) |
| --- | --- |
| CC(N)Cc1ccccc1 (stereo not shown) | 48 |
| CCC(=O)C(CC(C)N(C)C)(c1ccccc1)c1ccccc1 (stereo not shown) | 84 |
| CN[C@@H](C)Cc1ccccc1 | 77 |

Note: attention shifts to another entry.
Query: Sample CN1CCN(C(c2ccccc2)c2ccc(Cl)cc2)CC1 (stereo not shown) — what was its Enrichment (average of 3 replicates)?
Reply: 66

====

ASSAY_SUMMARY: LPME of seven basic drugs from water with different acidic acceptor phases, CE analysis
Type: physicochemical
CONDITION_NOTES: acceptor phase 100 mM HCOOH, measured pH 2.3; water sample, 100 ng/mL
TEST_READOUT: Enrichment (average of 3 replicates)
Give the figure by itself; no unit, no explanation.

Examples with answers:
| COMPOUND | MEASUREMENT |
| --- | --- |
| CN1CCN(C(c2ccccc2)c2ccc(Cl)cc2)CC1 (stereo not shown) [chlorcyclizine] | 93 |
| CN[C@@H](C)Cc1ccccc1 [methamphetamine] | 13 |
| CC(N)Cc1ccccc1 (stereo not shown) [amphetamine] | 5 |

Note: attention shifts to another entry.
Query: Sample CCC(=O)C(CC(C)N(C)C)(c1ccccc1)c1ccccc1 (stereo not shown) [methadone] — what was its Enrichment (average of 3 replicates)?
Reply: 91
